Listing of entries alongside the reported R_(ABT-263), % of FRET signal left with 20 uM ABT-263.
# System Name: T1, mCerulean3-Bcl-2 (human, UniProt P10415 1-239)
# T1 construct: Bcl-2, human; GGS linker between mCerulean3 and Bcl-2; also called ^CBcl-2; ^cBcl-2; source: MCF-7, stably transfected clone, in live cells; not shown: mCerulean3, N-terminal, kept
# T1 sequence (P10415 whole entry): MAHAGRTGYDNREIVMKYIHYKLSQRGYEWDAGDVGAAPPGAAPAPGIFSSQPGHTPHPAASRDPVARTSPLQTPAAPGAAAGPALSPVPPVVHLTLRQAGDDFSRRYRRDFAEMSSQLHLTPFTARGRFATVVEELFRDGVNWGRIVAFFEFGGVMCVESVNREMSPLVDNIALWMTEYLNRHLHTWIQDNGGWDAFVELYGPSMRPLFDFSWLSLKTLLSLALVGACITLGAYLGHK
# Experimental Details: FRET or BRET; FLIM-FRET in live MCF-7 cells: mCer3-Bcl-XL or mCer3-Bcl-2 stably expressed (donor), Venus-BH3 protein transiently expressed (acceptor); binding curves of FLIM-FRET efficiency against the Venus:mCer3 intensity ratio, 25 C; untreated, DMSO, 20 uM ABT-263 (18-24 h) or 1.25-20 uM A-1155463, A-1331852, ABT-263; R values interpolated at ratio 0.5 (Bcl-XL) or 0.25 (Bcl-2), ^VBad4E signal subtracted
# Test Parameters: partners not purified
Field format: number, assumed %, no unit text.

Binder | Readout Units | Obs Value
Venus-BimEL-I181E (natural protein, mouse, UniProt O54918-1 1-196, looked up, BimEL, mouse; also called ^vBimEL-I181E; source: MCF-7, transiently transfected, in live cells; not shown: Venus, N-terminal, kept) MAKQPSDVSSECDREGGQLQPAERPPQLRPGAPTSLQTEPQGNPDGEGDRCPHGSPQGPLAPPASPGPFATRSPLFIFVRRSSLLSRSSSGYFSFDTDRSPAPMSCDKSTQTPSPPCQAFNHYLSAMASIRQSQEEPEDLRPEIRIAQELRRIGDEFNETYTRRVFANDYREAEDHPQMVELQLLRFIFRLVWRRH | % | 73.3
Venus-BimEL-I188E (natural protein, mouse, UniProt O54918-1 1-196, looked up, BimEL, mouse; also called ^VBimEL-I188E; ^vBimEL-I188E; source: MCF-7, transiently transfected, in live cells; not shown: Venus, N-terminal, kept) MAKQPSDVSSECDREGGQLQPAERPPQLRPGAPTSLQTEPQGNPDGEGDRCPHGSPQGPLAPPASPGPFATRSPLFIFVRRSSLLSRSSSGYFSFDTDRSPAPMSCDKSTQTPSPPCQAFNHYLSAMASIRQSQEEPEDLRPEIRIAQELRRIGDEFNETYTRRVFANDYREAEDHPQMVILQLLRFEFRLVWRRH | % | 63
Venus-BimEL-CTS2A (natural protein, mouse, UniProt O54918-1 1-196, looked up, BimEL, mouse; also called ^VBim-CTS2A; ^vBimEL-CTS2A; source: MCF-7, transiently transfected, in live cells; not shown: Venus, N-terminal, kept) MAKQPSDVSSECDREGGQLQPAERPPQLRPGAPTSLQTEPQGNPDGEGDRCPHGSPQGPLAPPASPGPFATRSPLFIFVRRSSLLSRSSSGYFSFDTDRSPAPMSCDKSTQTPSPPCQAFNHYLSAMASIRQSQEEPEDLRPEIRIAQELRRIGDEFNETYTRRVFANDYREAEDHPQMVILQLLAFIFALVWRRH | % | 80.7

We next turn to a different binder, shown below.
# input Query (binder): Venus-BimEL-V192E (natural protein, mouse, UniProt O54918-1 1-196, looked up, BimEL, mouse; also called ^VBimEL-V192E; ^vBimEL-V192E; source: MCF-7, transiently transfected, in live cells; not shown: Venus, N-terminal, kept) MAKQPSDVSSECDREGGQLQPAERPPQLRPGAPTSLQTEPQGNPDGEGDRCPHGSPQGPLAPPASPGPFATRSPLFIFVRRSSLLSRSSSGYFSFDTDRSPAPMSCDKSTQTPSPPCQAFNHYLSAMASIRQSQEEPEDLRPEIRIAQELRRIGDEFNETYTRRVFANDYREAEDHPQMVILQLLRFIFRLEWRRH ; field requested: R_(ABT-263), % of FRET signal left with 20 uM ABT-263
# output 64.8

Sourced from paper PMC6414199
